Kindly supply the reported pEC50 values for the records listed here.
Test system: T47D
Assay: Cytotoxicity against human T47D cells after 4 days by MTT assay
Type: functional, cell-based
Conditions: 96 h
Here pEC50 is given on a logarithmic scale as minus log10 of the concentration in mol/L.

pEC50 for C/C1=C\CC(=O)/C=C/C=C\c2csc(n2)[C@@H](C)NC(=O)C[C@]2(CC1)[C@@H](C)C(=O)S[S+]2[O-] (stereo not given in full) ?
6.71

pEC50 for C/C1=C\[C@@H](O)C(=O)/C=C/C=C\c2csc(n2)[C@@H](C)NC(=O)C[C@@]2(CC1)[S+]([O-])SC(=O)[C@]2(C)O (stereo not given in full) ?
7.82

* * *

Kindly supply the reported EC50 values for the records listed here.
Test system: T47D
Assay: Cytotoxicity against human T47D cells after 4 days by MTT assay
Format: functional, cell-based
Details: 96 h

EC50 for C/C1=C\CC(=O)/C=C/C=C\c2csc(n2)[C@@H](C)NC(=O)C[C@@]2(CC1)SC(=O)[C@@H]2C ?
> 10 µM

EC50 for C/C1=C\CC(=O)/C=C/C=C\c2csc(n2)[C@@H](C)NC(=O)C[C@@](S)([C@@H](C)C(=O)O)CC1 ?
> 10 µM

EC50 for C/C1=C\CC(=O)/C=C/C=C\c2csc(n2)[C@@H](C)NC(=O)C[C@@]2(CC1)SSC(=O)[C@@H]2C ?
> 10 µM

These entries and their values trace back to ChEMBL document CHEMBL3621171.
